system: uninfected cells; assay: Cytotoxicity, microscopic reading of uninfected cells in the CPE inhibition test (rhinovirus host cells, not named); type: cell-based
Measured IC50, listed per entry.
Note: unit µM is implicit; provide only the numeric part.

- Cc1nocc1C(=O)Nc1ccc(C(F)(F)F)cc1: 100

Shifting focus to the molecule that follows.
I have this molecule here, C/C(O)=C(\C#N)C(=O)Nc1ccc(C(F)(F)F)cc1 , and I need its recorded IC50.
1000

---

test system: Madin Darby canine kidney (MDCK) cells; experiment: cells; type: cell-based; conditions: Canis lupus familiaris, cytotoxic concentration, run with Influenza A (H3N2), positive control drug = ribavirin, read-out: CPE Inhibition test IC50
Readout Type: pIC50
Reminder that pIC50 means the negative base-10 logarithm of the concentration expressed in mol/L.

- Cc1nocc1C(=O)Nc1ccc(C(F)(F)F)cc1: 4.14
- C/C(O)=C(\C#N)C(=O)Nc1ccc(C(F)(F)F)cc1: 4.52

--- query ---
Give the measured pIC50 of Cc1oncc1C(=O)Nc1cccc(C(F)(F)F)c1 .
4.20

---

tested on: Madin Darby canine kidney (MDCK) cells; experiment: cells; assay type: cell-based; settings: Canis lupus familiaris, cytotoxic concentration, run with Influenza A (H1N1), positive control drug = ribavirin, read-out: Neutral Red Uptake test IC50
Readout Type: IC50 (µM)
# value in µM; strip the unit string

- Cc1nocc1C(=O)Nc1ccc(C(F)(F)F)cc1 [Compound 99-126]: 48

Here's the next entry for you.
Looking for the measured IC50 of Cc1oncc1C(=O)Nc1cccc(C(F)(F)F)c1 [Compound 99-127] , can you help?
66

---

Quick list: pEC50 per entry.
test system: Parainfluenza Type 3 Virus; experiment: organism not typed; format: cell-based; settings: MA104; read-out: CPE Inhibition test EC50
pEC50: −log10 of the molar value.

- Cc1nocc1C(=O)Nc1ccc(C(F)(F)F)cc1: < 4.00

Find the recorded pEC50 belonging to Cc1oncc1C(=O)Nc1cccc(C(F)(F)F)c1 and report it.
< 4.00
